Biological target: T1, human SIRP-α v2 (human)
T1 construct: also called Human v2; Human V2
T1 sequence (chain, as listed by the source limits assumed): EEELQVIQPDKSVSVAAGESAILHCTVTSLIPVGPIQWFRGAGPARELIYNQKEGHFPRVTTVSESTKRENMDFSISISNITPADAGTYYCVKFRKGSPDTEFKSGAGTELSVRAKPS
Assay: SPR, antibody on GLC chip
attribute-measured: pKd
The quantity pKd is defined as the negative base-10 logarithm of the molar concentration.

Study these solved cases before continuing.
antibody 135 variant, light chain Mut / heavy chain wt (antibody, V domains shown) VH: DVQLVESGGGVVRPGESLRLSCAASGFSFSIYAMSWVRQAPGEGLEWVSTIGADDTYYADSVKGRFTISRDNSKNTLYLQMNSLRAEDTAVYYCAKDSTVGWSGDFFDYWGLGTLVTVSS VL: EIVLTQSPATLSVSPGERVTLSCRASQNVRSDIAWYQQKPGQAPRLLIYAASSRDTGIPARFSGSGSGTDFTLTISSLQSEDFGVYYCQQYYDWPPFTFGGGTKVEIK ... 10.58
antibody 135 variant, light chain wt / heavy chain Mut (antibody, V domains shown) VH: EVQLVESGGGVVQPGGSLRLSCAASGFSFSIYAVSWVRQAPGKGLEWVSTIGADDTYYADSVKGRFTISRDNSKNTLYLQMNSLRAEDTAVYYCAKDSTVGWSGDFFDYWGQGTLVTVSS VL: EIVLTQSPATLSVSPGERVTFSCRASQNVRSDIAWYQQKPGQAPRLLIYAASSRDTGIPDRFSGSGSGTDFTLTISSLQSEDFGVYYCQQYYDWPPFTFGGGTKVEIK ... 10.71

[ask] // pKd lookup, key: antibody 119 variant, light chain Mut / heavy chain Mut_V34M (antibody, V domains shown) VH: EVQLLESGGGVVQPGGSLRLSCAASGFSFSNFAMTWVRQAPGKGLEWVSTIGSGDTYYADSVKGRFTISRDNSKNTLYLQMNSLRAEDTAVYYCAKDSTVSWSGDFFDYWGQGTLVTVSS VL: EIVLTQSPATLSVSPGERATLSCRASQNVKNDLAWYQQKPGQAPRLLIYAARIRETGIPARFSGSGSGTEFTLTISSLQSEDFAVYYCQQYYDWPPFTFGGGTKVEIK
[reply] 10.16

The reported numbers originate from patent US20210363269A1.
